Tested on: HCT-15 colon
METHOD_DESCRIPTION: NCI-60 one-dose screen, 48 h (100 = growth as untreated, 0 = no growth, -100 = all killed)
TEST_SETTINGS: 10 µM unless noted
This is part of a sample that, as a whole, favours compounds with a hit. Of some 83,000 tested, about 20% had one in any assay.
Please respond with reported growth for every item in the list.
One number for each entry, in %.

Consider the following illustrative entries.
>  <COMPOUND>
COc1cccc(-c2nn(-c3ccccc3)cc2-c2ccnc(NCCNC(=O)Nc3ccc(Cl)c(Cl)c3)c2)c1

>  <RESULT>
7.83

$$$$
>  <COMPOUND>
CNS(=O)(=O)c1n[nH]nc1-c1cc(C(C)(C)C)c(O)c(C(C)(C)C)c1

>  <RESULT>
95.3

$$$$
>  <COMPOUND>
C[C@H](NC(=O)[C@@H]1CSSC[C@@H](NC(=O)c2nc3ccccc3cc2O)C(=O)NCC(=O)N1C)c1ccccc1

>  <RESULT>
42.1

$$$$
>  <COMPOUND>
Cc1ccc(C(=O)CSc2nc(-c3ccc(Br)cc3)c(C#N)c(=O)[nH]2)cc1

>  <RESULT>
105

$$$$
>  <COMPOUND>
COc1ccc(-c2nc(SC(C)C)nc(NNC(N)=S)c2C#N)cc1

>  <RESULT>
23.6

$$$$
>  <COMPOUND>
CC1=CN2C(=O)C3C4=C(CCCC4)SC3N=C2CN1c1c(C)cccc1C (stereo unspecified)

>  <RESULT>
49.8

$$$$
>  <COMPOUND>
CCN(CC)CCN1CC(O)=C(c2nc(-c3ccc(Cl)cc3)cs2)C1=N

>  <RESULT>
-13.4

$$$$
>  <COMPOUND>
Cc1ccc(N2CCN(C(=S)c3cccs3)CC2)cc1

>  <RESULT>
96.3

$$$$

Dear colleague, could you please provide growth for the compounds listed below?
1. O=c1c2cc(F)ccc2sc2c(NCCN3CCCCC3)nc3ccccc3c12
2. O=C(Nc1ccccc1-c1nc2ccccc2c(=O)[nH]1)c1cc2ccccc2[nH]1
3. O=c1ccn2nc3ccccc3c2[nH]1
4. O=c1cc(C2NNC(=S)N2)c2ccc3ccccc3c2o1 (stereo unspecified)

Result:
13.7
98.6
91.7
98.1

Dear colleague, could you please provide growth for the compounds listed below?
1. COc1ccc(-c2nc3sccn3c2-c2cc(-c3cc(OC)c(OC)c(OC)c3)on2)cc1
2. Cc1ccc(-c2cc3c(cc2O)C2CCCCC2(N2CCOCC2)O3)cc1 (stereo unspecified)
3. Cc1nn(-c2ccccc2)c2nc3c(c(-c4ccc(Cl)cc4)c12)CNC1(CCSCC1)N3
4. Cc1cccc(NC(=O)CSc2nc3ccccc3[nH]2)c1
5. COc1ccc(CN2C(=O)C(Cl)=C(Nc3cccc(C(F)(F)F)c3)C2=O)cc1
6. O=C1N=c2cc3c(cc2=C/C1=C/c1sc(=S)n(CCc2ccc(O)cc2)c1O)OCCO3
7. Cc1ccc(S(=O)(=O)NCC[C@@H]2C[C@H]2c2cc3ccccc3s2)cc1

Result:
[96.9, 101, 101, 104, 34.8, 9.98, 101]

Dear colleague, could you please provide growth for the compounds listed below?
1. Cc1cccc(Cc2cnc(NC(=O)/C=C/c3ccco3)s2)c1
2. CCCCCCCCCCCCCCCCCC1=NCCN1CCOC1=C(Cl)C(=O)c2ccccc2C1=O
3. COc1cccc(/C=C/C(=O)c2c(C)nc3ccccc3c2/C=C/c2ccc(C)cc2)c1OC
4. C=C(C)[C@@H]1CC=C2c3sc(-c4ccc(C)cc4)nc3C[C@@H](C)[C@]2(C)C1
5. Cn1c(I)c(C#C[Si](C)(C)C)c(=O)n(C(=O)c2ccccc2)c1=O

Result:
1: 12.8; 2: 55.4; 3: 19; 4: 104; 5: 6.55

Dear colleague, could you please provide growth for the compounds listed below?
1. CCN1C(=O)N(CC)C2Nn3c(s/c(=C\c4ccc(Cl)cc4Cl)c3=O)=NC21 (stereo unspecified)
2. Cc1c(C(=O)N[C@@H](Cc2ccccc2)C(=O)C(=O)NCCc2ccccc2)[nH]c2ccccc2c1=O
3. NNC(=O)c1nc(N)n(-c2ccc(S(N)(=O)=O)cc2)n1
4. Cc1occc1-c1n[nH]c(=S)n1N1C(=O)CSC1=S
5. CC1CC(C(C)(C)C)C(=O)C(C(C)(C)C)C1 (stereo unspecified)

Result:
1: 22.4; 2: 102; 3: 107; 4: 101; 5: 97.8
